Molecular target: UniProt:Q01158
Assay: Inhibition constant against luciferase with respect to natural substrate luciferin
Design: species or system Aquatica lateralis

CPD_SMILES	Ki
Nc1ncnc2c1ncn2[C@@H]1O[C@H](COS(=O)(=O)NC(=O)c2csc(-c3nc4ccc(O)cc4s3)n2)[C@@H](O)[C@H]1O	0.034 µM

----------
Biological target: Luciferin 4-monooxygenase (Luciola lateralis)
Sequence (Q01158 whole entry): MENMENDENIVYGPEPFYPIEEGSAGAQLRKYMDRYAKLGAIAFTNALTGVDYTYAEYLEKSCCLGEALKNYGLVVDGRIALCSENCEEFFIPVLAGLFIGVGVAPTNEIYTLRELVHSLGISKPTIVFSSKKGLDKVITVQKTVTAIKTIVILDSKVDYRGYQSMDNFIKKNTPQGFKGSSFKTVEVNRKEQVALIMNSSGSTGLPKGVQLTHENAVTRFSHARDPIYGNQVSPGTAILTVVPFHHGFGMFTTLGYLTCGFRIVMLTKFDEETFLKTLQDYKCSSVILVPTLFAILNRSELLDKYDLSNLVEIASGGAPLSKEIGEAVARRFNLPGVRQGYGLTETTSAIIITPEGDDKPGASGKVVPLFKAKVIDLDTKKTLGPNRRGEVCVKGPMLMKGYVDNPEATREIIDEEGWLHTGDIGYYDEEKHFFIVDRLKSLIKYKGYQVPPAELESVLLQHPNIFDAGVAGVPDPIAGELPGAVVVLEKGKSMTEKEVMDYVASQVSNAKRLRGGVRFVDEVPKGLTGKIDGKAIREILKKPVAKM
Assay: Inhibition constant against luciferase with respect to natural substrate Mg-ATP
Set-up: species or system Aquatica lateralis
pKi: −log10 of the molar value.

CPD_SMILES	pKi
Nc1ncnc2c1ncn2[C@@H]1O[C@H](COS(=O)(=O)NC(=O)c2csc(-c3nc4ccc(O)cc4s3)n2)[C@@H](O)[C@H]1O	7.39

Cited source for all entries: ChEMBL document CHEMBL1139587
